These measurements were taken from ChEMBL document CHEMBL1177669.

# target or system: 5-hydroxytryptamine receptor 6 (Homo sapiens, UniProt P50406)
# Sequence (P50406 whole entry): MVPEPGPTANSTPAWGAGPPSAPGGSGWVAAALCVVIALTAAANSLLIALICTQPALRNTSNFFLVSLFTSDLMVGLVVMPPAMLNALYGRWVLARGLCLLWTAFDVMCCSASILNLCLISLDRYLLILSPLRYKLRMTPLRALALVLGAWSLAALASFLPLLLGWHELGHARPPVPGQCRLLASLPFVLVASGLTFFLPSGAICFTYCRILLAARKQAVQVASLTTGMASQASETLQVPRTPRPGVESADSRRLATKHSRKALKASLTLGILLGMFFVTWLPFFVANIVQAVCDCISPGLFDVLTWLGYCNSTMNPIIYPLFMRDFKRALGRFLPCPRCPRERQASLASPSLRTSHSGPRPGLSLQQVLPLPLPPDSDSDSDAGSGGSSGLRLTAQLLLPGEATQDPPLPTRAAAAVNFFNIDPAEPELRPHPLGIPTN
# test details: Antagonist activity at human recombinant 5HT6 receptor expressed in HEK293 cells assessed as inhibition of serotonin-induced cAMP production
# Assay type: functional, cell-based
Measured pIC50, listed per entry for reference.
Note on units: pIC50 is unitless, being -log10 of a concentration expressed in mol/L.

# count of solved cases: 8
O=S(=O)(c1cccc(Cl)c1)c1nnn2c1nc(NCc1cccnc1)c1sccc12 5.90
Cc1ccc(C)c(Nc2nc3c(S(=O)(=O)c4ccc(Br)cc4)nnn3c3ccsc23)c1 5.70
Cc1ccc(C)c(S(=O)(=O)c2nnn3c2nc(N2CCOCC2)c2sccc23)c1 5.71
Cc1ccc(Nc2nc3c(S(=O)(=O)c4cccc(Cl)c4)nnn3c3ccsc23)cc1 5.92
CCc1ccc(S(=O)(=O)c2nnn3c2nc(NCCc2ccccc2)c2sccc23)cc1 5.98
CCc1ccc(S(=O)(=O)c2nnn3c2nc(N(CC)CC)c2sccc23)cc1 5.72
CCN(Cc1ccccc1)c1nc2c(S(=O)(=O)c3ccc(C)cc3)nnn2c2ccsc12 6.52
COc1ccccc1CNc1nc2c(S(=O)(=O)c3ccccc3)nnn2c2ccsc12 6.54

Can you look up the measured pIC50 of O=S(=O)(c1ccc(Cl)cc1)c1nnn2c1nc(NCc1ccccc1)c1sccc12 for me?
6.57

----------
# target or system: 5-hydroxytryptamine receptor 6 (Homo sapiens, UniProt P50406)
# test details: Binding affinity to human recombinant 5HT6 receptor expressed in HEK293 cells by radioligand displacement assay
# Type: cell-based
measured quantity: IC50 (nM)
# value in nM; strip the unit string

compound	target or system	u	endpoint result
CC(Nc1nc2c(S(=O)(=O)c3ccccc3)nnn2c2ccsc12)C12CC3CC(CC(C3)C1)C2 (centres undefined)	5-hydroxytryptamine receptor 6 (Homo sapiens, UniProt P50406)	nM	221
O=S(=O)(c1ccccc1)c1nnn2c1nc(NCc1cccs1)c1sccc12	5-hydroxytryptamine receptor 6 (Homo sapiens, UniProt P50406)	nM	3.6
CN(Cc1ccccc1)c1nc2c(S(=O)(=O)c3ccccc3)nnn2c2ccsc12	5-hydroxytryptamine receptor 6 (Homo sapiens, UniProt P50406)	nM	5

The record that follows has no IC50 shown yet.
Can you look up the measured IC50 of CN(Cc1ccccc1)c1nc2c(S(=O)(=O)c3cccc(Cl)c3)nnn2c2ccsc12 for me?
7.5

----------
# target or system: 5-hydroxytryptamine receptor 6 (Homo sapiens, UniProt P50406)
# test details: Antagonist activity at human recombinant 5HT6 receptor expressed in HEK293 cells assessed as inhibition of serotonin-induced cAMP production
# Format: functional, cell-based
Measured pIC50, listed per entry for reference.
Note on units: pIC50 is unitless, being -log10 of a concentration expressed in mol/L.

# count of solved cases: 4
compound	target or system	pIC50
Nc1nc2c(S(=O)(=O)c3cccc(Cl)c3)nnn2c2ccsc12	5-hydroxytryptamine receptor 6 (Homo sapiens, UniProt P50406)	6.16
Cc1ccc(S(=O)(=O)c2nnn3c2nc(NC(C)Cc2ccccc2)c2sccc23)cc1C (stereo not given)	5-hydroxytryptamine receptor 6 (Homo sapiens, UniProt P50406)	6.17
Cc1ccc(C)c(S(=O)(=O)c2nnn3c2nc(N)c2sccc23)c1	5-hydroxytryptamine receptor 6 (Homo sapiens, UniProt P50406)	5.91
COc1cccc(Nc2nc3c(S(=O)(=O)c4ccc(C)c(C)c4)nnn3c3ccsc23)c1	5-hydroxytryptamine receptor 6 (Homo sapiens, UniProt P50406)	6.07

The record that follows has no pIC50 shown yet.
Can you look up the measured pIC50 of COc1ccccc1CNc1nc2c(S(=O)(=O)c3cccc(Cl)c3)nnn2c2ccsc12 for me?
6.11
